# Organism: Rattus norvegicus
# procedure-summary: DrugMatrix - Regimen: Daily Repeat
# Format: toxicity, organism-based, Sprague-Dawley
# Set-up: regimen Daily Repeat, gender Male, age 6-8 weeks
# condition-notes: in vivo, po, 0 mg/kg, 72 h, tissue Plasma, route oral GAVAGE, dose level Control, time 3 day, vehicle 100 % WATER
Assign PHOSPHORUS to each entry below.
Report only the number, with the unit mg/dL understood.

Which PHOSPHORUS reading was recorded for the compound "CC[C@H]1OC(=O)[C@H](C)[C@@H](O[C@H]2C[C@@](C)(OC)[C@@H](O)[C@H](C)O2)[C@H](C)[C@@H](O[C@@H]2O[C@H](C)C[C@H](N(C)C)[C@H]2O)[C@](C)(OC)C[C@@H](C)C(=O)[C@H](C)[C@@H](O)[C@]1(C)O" ?
10.87

Look at this compound and give its reported PHOSPHORUS. Cc1c(N(C)CS(=O)(=O)[O-])c(=O)n(-c2ccccc2)n1C.[Na+] [DIPYRONE SODIUM]
12.95

Consider the compound shown here: "CCCCCCCCCCCCCCCC[n+]1ccccc1.[Br-]" What is its recorded PHOSPHORUS?
12.08

Reported PHOSPHORUS, compound CCN(CC)CC#CCOC(=O)C(O)(c1ccccc1)C1CCCCC1 (stereo not given) : ____
11.92

Item under review: "O=C(O)c1cc(=O)c2c(OCC(O)COc3cccc4oc(C(=O)O)cc(=O)c34)cccc2o1" . Reported PHOSPHORUS?
10.2

---

# Species on record: Rattus norvegicus
# procedure-summary: DrugMatrix - Regimen: Daily Repeat
# Format: toxicity, organism-based, Sprague-Dawley
# Design: regimen Daily Repeat, gender Male, age 6-8 weeks
# condition-notes: in vivo, po, 0 mg/kg, 120 h, tissue Blood, route oral GAVAGE, dose level Control, time 5 day, […]
Threshold check on LEUKOCYTE COUNT: strictly below 10 x10E3/uL is Criterion met; on or above 10 x10E3/uL is Criterion not met.

LEUKOCYTE COUNT under 10 x10E3/uL? Item: "C#C[C@]1(O)CC[C@H]2[C@@H]3CCc4cc(O)ccc4[C@H]3CC[C@@]21C"
Criterion not met

LEUKOCYTE COUNT strictly < 10 x10E3/uL for this compound? "CC(C)Cc1ccc(CC(=O)O)cc1"
Criterion not met

Decide: LEUKOCYTE COUNT of CC(CCc1ccc(O)cc1)NCCc1ccc(O)c(O)c1 (centres undefined) strictly below 10 x10E3/uL?
Criterion not met

Just wondering, is LEUKOCYTE COUNT of CN(CCOc1ccc(CC2SC(=O)NC2=O)cc1)c1ccccn1 (centres undefined) below 10 x10E3/uL?
Criterion met

# strict comparison: is reported LEUKOCYTE COUNT < 10 x10E3/uL? input = "CCn1cc(C(=O)O)c(=O)c2cc(F)c(N3CCNCC3)nc21"
Criterion not met

Please state whether LEUKOCYTE COUNT is below 10 x10E3/uL for "OCCN1CCN(CCCN2c3ccccc3Sc3ccc(C(F)(F)F)cc32)CC1"
Criterion not met

---

# Organism: Rattus norvegicus
# procedure-summary: DrugMatrix - Regimen: Daily Repeat
# Type: toxicity, organism-based, Sprague-Dawley
# Set-up: regimen Daily Repeat, gender Male, age 6-8 weeks
# condition-notes: in vivo, po, 0 mg/kg, 120 h, tissue Plasma, route oral GAVAGE, dose level Control, time 5 day, vehicle 100 % WATER
Exercise: state measured ASPARTATE AMINOTRANSFERASE for each of the molecules provided.
Reply numerically in u/L, unit not repeated.

Could you tell me which ASPARTATE AMINOTRANSFERASE is on file for "CNS(=O)(=O)Cc1ccc2[nH]cc(CCN(C)C)c2c1" ?
81.67

I would be grateful if you could share the reported ASPARTATE AMINOTRANSFERASE for CCN(CC)CC#CCOC(=O)C(O)(c1ccccc1)C1CCCCC1 (configuration not stated) [OXYBUTYNIN] .
91

If you can, please state the reported ASPARTATE AMINOTRANSFERASE value of "CCOC(N)=O" .
86

I have this molecule here, OCCO [ETHYLENE GLYCOL] , and I need its recorded ASPARTATE AMINOTRANSFERASE.
81

Please look up its ASPARTATE AMINOTRANSFERASE: "CCCc1nn(C)c2c(=O)[nH]c(-c3cc(S(=O)(=O)N4CCN(C)CC4)ccc3OCC)nc12"
81

What ASPARTATE AMINOTRANSFERASE value was documented for this molecule, CCN[C@@H](C)Cc1cccc(C(F)(F)F)c1 [DEXFENFLURAMINE] ?
62.33

Given CC[C@H]1OC(=O)[C@H](C)[C@@H](O[C@H]2C[C@@](C)(OC)[C@@H](O)[C@H](C)O2)[C@H](C)[C@@H](O[C@@H]2O[C@H](C)C[C@H](N(C)C)[C@H]2O)[C@](C)(O)C[C@@H](C)CN(C)[C@H](C)[C@@H](O)[C@]1(C)O [AZITHROMYCIN] , state its recorded ASPARTATE AMINOTRANSFERASE.
88

I'd like to know its ASPARTATE AMINOTRANSFERASE. The molecule in question is Nc1ccc(S(=O)(=O)Nc2ncccn2)cc1 [SULFADIAZINE]
62.33

Would you mind telling me what ASPARTATE AMINOTRANSFERASE value was observed for O=C(O)c1cc(=O)c2c(OCC(O)COc3cccc4oc(C(=O)O)cc(=O)c34)cccc2o1 [CROMOLYN] ?
61

Recorded ASPARTATE AMINOTRANSFERASE for Cc1c(N(C)CS(=O)(=O)[O-])c(=O)n(-c2ccccc2)n1C.[Na+] [DIPYRONE SODIUM] , please?
77.5

Data request, read-out ASPARTATE AMINOTRANSFERASE, for O=P1(N(CCCl)CCCl)NCCCO1 (configuration not stated) [CYCLOPHOSPHAMIDE ANHYDROUS]
80.83

Give its ASPARTATE AMINOTRANSFERASE value. Item: Nc1ccc(S(=O)(=O)Nc2nccs2)cc1 [SULFATHIAZOLE]
85.67

What ASPARTATE AMINOTRANSFERASE value was documented for this molecule, CN1C2CCCC1CC(NC(=O)c1nn(C)c3ccccc13)C2 (configuration not stated) [GRANISETRON] ?
85.67

What value of measured ASPARTATE AMINOTRANSFERASE is listed for O=C(O)c1cccnc1 [NIACIN] ?
99.5

Requested read-out: ASPARTATE AMINOTRANSFERASE. Entry: CC(C)(C)NC[C@H](O)COc1nsnc1N1CCOCC1 [TIMOLOL]
85.67

Param item = "CCCCCCCCCCCCCCCC[n+]1ccccc1.[Br-]" ; retrieve measured ASPARTATE AMINOTRANSFERASE.
87.67

Consider the molecule shown here: CC[C@H]1OC(=O)[C@H](C)[C@@H](O[C@H]2C[C@@](C)(OC)[C@@H](O)[C@H](C)O2)[C@H](C)[C@@H](O[C@@H]2O[C@H](C)C[C@H](N(C)C)[C@H]2O)[C@](C)(OC)C[C@@H](C)C(=O)[C@H](C)[C@@H](O)[C@]1(C)O [CLARITHROMYCIN] What is its recorded ASPARTATE AMINOTRANSFERASE?
83.17

The origin of these recorded values is ChEMBL document CHEMBL3885881.
